target system: MAGI3_2, Q5TCQ9
Sequence (Q5TCQ9 398-503): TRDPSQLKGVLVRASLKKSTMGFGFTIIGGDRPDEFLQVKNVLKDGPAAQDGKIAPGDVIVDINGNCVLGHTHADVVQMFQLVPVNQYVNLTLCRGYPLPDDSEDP
test method notes: holdup assay
Design: key: below the threshold = too weak to quantify, mostly under pKd 3.1 to 4
experimental parameters: plain residues with an end cap or a label only (N-terminal biotin on a linker: ado-ado)
measured metric: pKd

[
  {
    "binder": "IPLDGETEEL [MYOZ1, Q9NP98]",
    "pKd": "below the threshold"
  },
  {
    "binder": "LSEFKAMDSI [CTNNA1, P35221]",
    "pKd": "below the threshold"
  },
  {
    "binder": "PAPSSGKDYV [CLDN1, O95832]",
    "pKd": "below the threshold"
  },
  {
    "binder": "NHSSSPETTA [TRMT13, Q9NUP7]",
    "pKd": "below the threshold"
  },
  {
    "binder": "QMNQTLPVQV [EPHB3, P54753]",
    "pKd": "below the threshold"
  }
]

Please report the measured pKd for RHGSCVETSL [TMEM151B, Q8IW70]
4.06

Please report the measured pKd for SARSRLSSNL [HCN2, Q9UL51]
4.18

Please report the measured pKd for TSSMRGMDAV [RSRC2, Q7L4I2]
below the threshold

Please report the measured pKd for EKKTLIGIKL [GOT1L1, Q8NHS2]
below the threshold

Please report the measured pKd for GNSVLKSTQF [SLC22A12, Q96S37]
below the threshold

Please report the measured pKd for YNNCLEILRV [DCAF7, P61962]
below the threshold
